GI50 for assorted compounds
# Test system: U-251
# method-description: NCI tumour cell line growth inhibition, 48 h
Activity calls are given as the source filed them. Rule as the data show it: active = GI50 up to about 1.1 µM and inactive = higher.

{"compound": "COc1c(CC=C(C)C)c(O)c(C(CC(C)C)c2c(O)c(CC=C(C)C)c(O)c(C(C)=O)c2O)c(O)c1C(C)=O (configuration not stated)", "GI50": "0.703 µM (active)"}
{"compound": "CCCCCCC(=O)OC[n+]1ccc(-c2c(COC(=O)NC(C)C)c(COC(=O)NC(C)C)c3n2CCC3)cc1", "GI50": "> 80.4 µM (inactive)"}
{"compound": "CO[C@H]1O[C@@H]2CO[C@@H](c3ccccc3)O[C@H]2[C@@H]2C/C=C\\CCC[C@@]12O", "GI50": "20.8 µM (inactive)"}
{"compound": "O=C(Cn1cc(F)c(=O)[nH]c1=O)C12CC3CC(CC(C3)C1)C2", "GI50": "> 100 µM (inactive)"}
{"compound": "COc1ccc(NC(=O)CSc2nnc(Cc3ccccc3)o2)cc1", "GI50": "34.5 µM (inactive)"}
{"compound": "NNC(=O)Cn1c2ccc(Br)cc2c2nc3ccccc3nc21", "GI50": "43.7 µM (inactive)"}
{"compound": "O=c1c2c([nH]c3cc4c(cc13)OCO4)-c1ccccc1C2", "GI50": "17.2 µM (inactive)"}

====

# Test system: CAKI-1
# method-description: NCI tumour cell line growth inhibition, 48 h
Activity calls are given as the source filed them. Cut-off read from the data, not from the text of the source: active = GI50 up to about 1.1 µM and inactive = higher.
Labels: Yes = active, No = inactive

{"compound": "COc1nc(N)c(NC(C)=O)c(=O)n1C", "label-value": "No"}
{"compound": "N#C/C(C(=O)Nc1ccc(Cl)cc1)=C(/N)N1CCOCC1", "label-value": "No"}
{"compound": "NNC(=O)CSc1nnc(CCCCCCCCc2nnc(SCC(=O)NN)o2)o1", "label-value": "No"}
{"compound": "O=C1OC2(c3ccc(O)cc3Oc3cc(O)ccc32)c2c1c(-c1ccccc1)c(-c1ccccc1)c(-c1ccccc1)c2-c1ccccc1", "label-value": "No"}
{"compound": "Cc1cc(S(=O)(=O)N/C(=C(\\C#N)C(=O)c2ccccc2)[n+]2ccc(N(C)C)cc2)c([S-])cc1Cl", "label-value": "No"}
{"compound": "Cc1ccc2nc(N/N=C/c3ccc(C)s3)cc(C)c2c1", "label-value": "No"}
{"compound": "CC1=NN(C(=O)c2ccccc2O)C(=O)/C1=C/c1ccccc1O", "label-value": "No"}
{"compound": "CN(C)CCNc1c([N+](=O)[O-])cc2c3c(cccc13)C(=O)N(CCN(C)C)C2=O", "label-value": "No"}
{"compound": "CC12CCC3C(CCC4(O)C=CCCC34C=O)C1(O)CC(O)C2c1ccc(=O)oc1 (centres undefined)", "label-value": "Yes"}
{"compound": "COc1c(O)cc2ccnc3c2c1N(C)C=C3", "label-value": "No"}
{"compound": "CCOC1Oc2ccccc2-c2nc(N)ncc21 (centres undefined)", "label-value": "No"}
{"compound": "CSc1nc(-c2cc3c(c(SC)n2)CCCCC3)cc2c1CCCCC2", "label-value": "No"}
{"compound": "COC(=O)/C(C#N)=C1\\NC(=O)CC(c2ccccc2)C1C#N (centres undefined)", "label-value": "No"}
{"compound": "C[C@]12CC[C@H](O)CC1=CC[C@@H]1C2CC[C@]2(C)C(=O)NC(=O)CC12 (some centres undefined)", "label-value": "No"}
{"compound": "CC1=NN(C(=O)c2ccc(Cl)cc2)C(=O)/C1=C/c1cccc([N+](=O)[O-])c1", "label-value": "No"}
{"compound": "CCN(CC)CCn1ncc2c3c(=O)c4cccnc4n(CCN(CC)CC)c3ccc21", "label-value": "No"}
{"compound": "COc1c(CC=C(C)C)c(O)c(C(CC(C)C)c2c(O)c(CC=C(C)C)c(O)c(C(C)=O)c2O)c(O)c1C(C)=O (centres undefined)", "label-value": "No"}
{"compound": "C=C(Cl)C(Cl)(CBr)CCC(Cl)C(C)C (centres undefined)", "label-value": "No"}
{"compound": "CCOC(=O)c1c(Br)c(-c2ccc([N+](=O)[O-])cc2)c(Br)n1C", "label-value": "No"}
{"compound": "NCCC(=O)N[C@H](Cc1cc(O)c(O)c(SCC(NC(=O)CC[C@H](N)C(=O)O)C(=O)NCC(=O)O)c1)C(=O)O (some centres undefined)", "label-value": "No"}
{"compound": "O=C1NC(N2CCOCC2)=N/C1=C\\c1ccccc1O", "label-value": "No"}
{"compound": "Cc1nc(-n2nc(-c3ccccc3)cc2-c2ccccc2)sc1C(=O)/C=C/c1ccc(Cl)c(Cl)c1", "label-value": "No"}
{"compound": "CCC1(C)N=c2c(ncn2N=C(C)C)=C(C(N)=O)N1 (centres undefined)", "label-value": "No"}
{"compound": "CC(=O)CC1(CBr)Nc2ccc([N+](=O)[O-])cc2NC1=O (centres undefined)", "label-value": "No"}
